- Tested on: Trypanosoma cruzi
- run.description: Antiprotozoal activity against Trypanosoma cruzi BH infected in CFW mouse assessed as increase in host mean survival time at 5 mg/kg, po administered daily for 5 days starting 4 hrs post-parasite infection (reference value: 14 +/- 1 days)
- Type: functional
Listed here are molecules together with their documented MST.

molecule	MST (days)
Cn1c([N+](=O)[O-])cnc1-c1nc(/C=N/N2CCS(=O)(=O)CC2)cs1	15
O=[N+]([O-])c1ccc(-c2nc(/C=N/N3CCOCC3)cs2)s1	0
O=[N+]([O-])c1ccc(-c2nc(/C=N/N3CCOCC3)cs2)o1	0
CC1CS(=O)(=O)CCN1/N=C/c1ccc([N+](=O)[O-])o1 (centres undefined)	0

* * *

Listed here are compounds together with their documented MST.
- Tested on: Trypanosoma cruzi
- run.description: Antiprotozoal activity against Trypanosoma cruzi BH infected in CFW mouse assessed as increase in host mean survival time at 10 mg/kg, ip administered daily for 5 days starting 4 hrs post-parasite infection (reference value: 14 +/- 1 days)
- Format: functional
- settings: route intraperitoneal

compound	MST
O=[N+]([O-])c1ccc(-c2nc(/C=N/N3CCS(=O)(=O)CC3)cs2)o1	5 days
CC1CS(=O)(=O)CCN1/N=C/c1ccc([N+](=O)[O-])o1 (stereo not drawn)	60 days
O=[N+]([O-])c1ccc(-c2nc(/C=N/N3CCSCC3)cs2)o1	0 days

* * *

- System: Trypanosoma cruzi
- run.description: Antiprotozoal activity against Trypanosoma cruzi BH infected in CFW mouse assessed as increase in host mean survival time at 200 mg/kg, po administered daily for 5 days starting 4 hrs post-parasite infection (reference value: 14 +/- 1 days)
- Type: functional

record.smiles	system	MST
O=[N+]([O-])c1cnc(-c2nc(/C=N/N3CCSCC3)cs2)s1	Trypanosoma cruzi	1 days
O=[N+]([O-])c1ccc(-c2nc(/C=N/N3CCOCC3)cs2)o1	Trypanosoma cruzi	60 days
Cn1c([N+](=O)[O-])cnc1-c1nc(/C=N/N2CCS(=O)(=O)CC2)cs1	Trypanosoma cruzi	60 days
O=[N+]([O-])c1ccc(-c2nc(/C=N/N3CCS(=O)(=O)CC3)cs2)o1	Trypanosoma cruzi	5 days
